- Assay Explanation: folding enthalpy; higher = less favourable; fluorescence melt of hairpins on a sequencing array, two-state fit
- Condition Notes: sodium 0.088 M
Value Type: folding enthalpy
Give the figure together with its unit, number first.

Input: Write down folding enthalpy measured for item GATCCCGTGGGGGATC ((((((....))))))
Output: -31.9 kcal/mol

Input: Write down folding enthalpy measured for item GAAAGGCGAAAGCCCTTC (((.(((....))).)))
Output: -13 kcal/mol

Input: Write down folding enthalpy measured for item GATCAGAGCTCTGATC ((((((....))))))
Output: -53 kcal/mol

Input: Write down folding enthalpy measured for item GCGTTGCGAAAGCAGTGC ((..(((....)))..))
Output: -17.8 kcal/mol

Input: Write down folding enthalpy measured for item GGTGTTGAAAAACACC ((((((....))))))
Output: -37 kcal/mol

Input: Write down folding enthalpy measured for item GACCCCGGAAACGAGGCC (.((.((....)).)).)
Output: -15 kcal/mol

Input: Write down folding enthalpy measured for item GCATAAGGAAACTCATGC ((((.((....)).))))
Output: -25.2 kcal/mol

Input: Write down folding enthalpy measured for item GCTCGTCCGAAAGGAAGC (((..(((....))))))
Output: -8.41 kcal/mol

Input: Write down folding enthalpy measured for item GCTTGTGGAAACGCAAGC (((((.(....).)))))
Output: -39.5 kcal/mol

Input: Write down folding enthalpy measured for item GATCAGGTCACTGATC ((((((....))))))
Output: -45.8 kcal/mol

Input: Write down folding enthalpy measured for item GGCAGGCCGAAAGGCGCC (((..(((....))))))
Output: -21.3 kcal/mol

Input: Write down folding enthalpy measured for item GCAGAAGAAATTCTGC ((((((....))))))
Output: -32.6 kcal/mol

====

Kindly supply the reported folding enthalpy values for the records listed here.
- Assay Explanation: folding enthalpy; higher = less favourable; fluorescence melt of hairpins on a sequencing array, two-state fit
- Condition Notes: sodium 0.088 M
Expressed in kcal/mol, but write only the number.

Input: Write down folding enthalpy measured for item GCATCGCGAAAGCCAGGC ((.(.((....)).).))
Output: -10.4

Input: Write down folding enthalpy measured for item GATCGATCTATCGATC ((((((....))))))
Output: -42.5

Input: Write down folding enthalpy measured for item GAGGATGCGAAAGCACTC (((..(((....))))))
Output: -14.2

Input: Write down folding enthalpy measured for item GATCGCAGAAGCGATC ((((((....))))))
Output: -30.8

Input: Write down folding enthalpy measured for item GTCCTTGGAAACAAGGGC (.(((((....))))).)
Output: -36.7

Input: Write down folding enthalpy measured for item GTGTCATCGAAAGATCAC (((..(((....))))))
Output: -17.1

Input: Write down folding enthalpy measured for item GCGTTGCGAAAGCACCGC (((.(((....))).)))
Output: -47.7

Input: Write down folding enthalpy measured for item GTTTATGGAAACGTAAAC (((((.(....).)))))
Output: -30

Input: Write down folding enthalpy measured for item GCAGGGCGAAAGCCCAGC ((.((((....)))).))
Output: -19.5

Input: Write down folding enthalpy measured for item GATGGACGAAAGTCAATC (((.(((....))).)))
Output: -26.3

Input: Write down folding enthalpy measured for item GCCAAGCGAAAGCGGGGC (((..((....))..)))
Output: -28.6

Input: Write down folding enthalpy measured for item GATCCAACTATGGATC ((((((....))))))
Output: -39.6

Sourced from the array DNA melting data of Ke et al. (doi:10.1101/2024.01.08.574731)
